Tested on: Canis familiaris
Assay: Toxicity in telemetered beagle dog assessed as increase in diastolic pressure at 5 mg/kg administered via oral gavage measured during 4 hrs of post dosing
Type: organism-based, Canis lupus familiaris
Settings: in vivo
outcome_measure: Activity

// C[C@@H](c1nc2ccc(N3CCC[C@@H](C(=O)N4CCCC4)C3)nc2[nH]1)n1cc(Cl)cn1 : Activity value = 4 to 6 mmHg

* * *

Tested on: Rattus norvegicus
Test: Unbound AUC in Wistar Han IGS rat at 100 mg/kg, po qd administered for 14 days
Type: ADME, organism-based
Conditions: in vivo, 336 h
outcome_measure: fAUC (ng·h/mL)
Please give a number only; it is taken to be in ng·h/mL.

// CS(=O)(=O)O.O=C([C@@H]1CCCN(c2ccc3nc(C4(n5cc(Cl)cn5)CC4)[nH]c3n2)C1)N1CCCC1 : fAUC value = 25600
